assay: qHTS for inhibitors of binding or entry into cells for Marburg Virus; details: Marburg virus pseudotyped entry inhibition, cell reporter; series mostly up to 37.8 µM
The whole screen tested about 300,000 compounds, of which about 5,400 (1.8%) were called active. About 28% were inconclusive and are not listed. Calls follow the shape of the full dose curve; tested in HEK293 cells. The sample as a whole holds a higher share of actives than the screen did.
Possible outcomes: Yes for active, No for inactive

> print(dat)
                                    compound  group
 1          CSc1nc2ccc(C)cc2c(=O)n1-c1cccnc1     No
 2  CC(=O)c1ccc(S(=O)(=O)Nc2ccc(-c3ccc4nncn4n3)cc2)cc1     No
 3     COc1ccc(NC(=O)c2cccc(Cl)c2)c[n+]1[O-]     No
 4  Cc1nnc(SCC(=O)N2c3ccccc3C(C)(c3ccc(Cl)cc3)CC2(C)C)s1 (stereo unspecified)    Yes
 5  COc1ccc(S(=O)(=O)NCc2cccnc2)cc1NC(=O)c1ccc(C)cc1     No
 6  CC(CN1CCCCC1)c1ccccc1 (stereo unspecified)     No
 7  CCOc1ccc2ccccc2c1/C=N/NC(=O)c1c(C)cc(C)[nH]c1=O     No
 8  CC1(C)C(=O)CCC2(C)C1=CCC1C2C(=O)CC2(C)C1CCC2(O)C(=O)CO (stereo unspecified)     No
 9  O=C(CCn1nnnc1CN1CCOCC1)N1CCC(c2ccccc2Cl)C1 (stereo unspecified)     No
10  O=C(Cc1c[nH]c2ccccc12)OCCOC(=O)Cc1c[nH]c2ccccc12    Yes
11  CC(CC(=O)Nc1ccc(F)cc1F)S(=O)(=O)c1ccc2c(c1)NC(=O)CO2 (stereo unspecified)     No
